target: Cytochrome P450 2C19 (Homo sapiens, UniProt P33261); assay: Cytochrome panel assay with activity outcomes. Panel member name: p450-cyp2c19 Compounds with AC50 equal or less than 10 uM are considered active; type: functional; settings: read-out: AC50
Sequence (P33261 whole entry): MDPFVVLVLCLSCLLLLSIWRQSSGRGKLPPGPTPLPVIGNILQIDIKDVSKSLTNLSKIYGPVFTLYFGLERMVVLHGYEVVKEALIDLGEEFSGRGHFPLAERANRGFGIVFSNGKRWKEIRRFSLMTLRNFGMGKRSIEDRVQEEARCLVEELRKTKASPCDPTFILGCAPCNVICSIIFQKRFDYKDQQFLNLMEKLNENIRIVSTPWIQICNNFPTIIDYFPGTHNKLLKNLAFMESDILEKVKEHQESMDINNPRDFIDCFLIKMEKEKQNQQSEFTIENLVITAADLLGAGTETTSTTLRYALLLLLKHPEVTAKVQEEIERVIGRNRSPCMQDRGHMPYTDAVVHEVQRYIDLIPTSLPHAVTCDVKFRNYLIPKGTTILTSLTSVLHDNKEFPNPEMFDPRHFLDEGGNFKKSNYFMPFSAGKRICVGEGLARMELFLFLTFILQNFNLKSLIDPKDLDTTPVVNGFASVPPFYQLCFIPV
For each of the compounds below, state its AC50.

1. COCCn1c(=O)c(-c2ccc(OC)cc2)nc2cnc(OC)nc21    39.8 µM (inconclusive)
2. COc1ccc(-c2nc3cnc(N4CCNCC4)nc3n(CCc3ccccc3)c2=O)cc1    39.8 µM (inconclusive)
3. O=C(NCc1ccccc1Cl)c1cnccn1    20 µM (inconclusive)
4. Cc1ccc(NC(=O)CCC(=O)NNC(=O)c2cccs2)c(C)c1    28.2 µM (inconclusive)
5. N/C(=N\N=C/c1ccc(-c2ccc(O)c(C(=O)O)c2)o1)N[N+](=O)[O-]    39.8 µM (inconclusive)

Provide the reported AC50 of each entry below, same order.
1. Cc1ccc(C(=O)CSc2nc(C)cc(=O)[nH]2)cc1
2. COC(=O)[C@@]1(Cc2ccc(OC)cc2)[C@H]2c3cc(C(=O)N4CCCC4)n(Cc4ccccn4)c3C[C@H]2CN1C(=O)c1ccccc1
3. O=C(Cn1nnc2ccccc21)N1CCCCC1
4. COc1ccc(/C=N\c2c(O)ccc3ccccc23)cc1OC
5. CCOC(=O)N1CCN(C(=O)c2ccc(NC(C)=O)cc2)CC1

1. 39.8 µM (inconclusive)
2. 39.8 µM (inconclusive)
3. 22.4 µM (inconclusive)
4. 5.01 µM (inconclusive)
5. 22.4 µM (inconclusive)
